Values were extracted from patent US20240101716A1.

EC50 of PD-L1-based blockade assay (luciferase reporter) by entry:
# targetEntity: human PD-L1 on CHO-K1 cells (human, UniProt Q9NZQ7 19-290)
# Sequence (Q9NZQ7 19-290): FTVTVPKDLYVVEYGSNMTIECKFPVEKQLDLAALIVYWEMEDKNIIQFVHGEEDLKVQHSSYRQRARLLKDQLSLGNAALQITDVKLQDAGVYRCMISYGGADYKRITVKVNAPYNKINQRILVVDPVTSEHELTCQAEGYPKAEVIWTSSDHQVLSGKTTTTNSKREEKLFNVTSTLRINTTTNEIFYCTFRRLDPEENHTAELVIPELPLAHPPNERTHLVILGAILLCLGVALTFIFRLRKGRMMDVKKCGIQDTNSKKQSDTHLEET
# experimentalProtocol: cell-based or functional assay
Value and unit, in that order.

Worked cases, answers included:
binder	assayValue
AS06730 sdAb (VHH, His6-tagged llama sdAb) VHH: QVQLVESGGGLVQAGGSLRLSCAASGRTFITYAIGWFRQAPGKEREFVSAINWSGSMTSYADSVKGRFTISRDNAKNTVYLQMNGLKPEDTAVYYCAAHRGAIAPIAQSVYTNWGQGTQVTVSS	17.2 nM
AS06617 sdAb (VHH, His6-tagged llama sdAb) VHH: DVQLVESGGGLVQAGDSLRLSCAASGRTFISYAVGWFRQAPGSEREFVAGIRWNGIHTDYADSVKGRFTISRDNAKNTVTLEMTSLKPEDTAVYYCAAHRTIATIPEKYEYEYWGQGTQVTVSS	63.8 nM
AS06703 sdAb (VHH, His6-tagged llama sdAb) VHH: EVQLVESGGGLVRAGGSLRLSCAASGRTFITYAIGWFRQAPGKEREFVTAINWSGSMTSYADSVKGRFTISRDNNKNTVYLQMNSLKPEDTALYYCAAHLGAIAPMSQSVYDYWGQGTQVTVSS	15 nM

Please examine the following record next.
Bench note: what EC50 of PD-L1-based blockade assay (luciferase reporter) did AS11948 sdAb (VHH, His6-tagged llama sdAb) VHH: EVQLVESGGGLVQAGDSLRLSCVASGRTFVTYGMGWFRQAPGKEREFVAAINWSGSMTSYGDSVKGRFAISRDNAKNTVYLQMNSLKPEDTAVYYCAAALGAVVYTTREPYTYWGRGTQVTVSS show?
25.2 nM
